Origin of values: ChEMBL document CHEMBL1201862

Test system: UACC-62
test: NCI tumour cell line growth inhibition, 48 h
Activity calls are given as the source filed them. Cut-off read from the data, not from the text of the source: active = GI50 up to about 1.1 µM and inactive = higher.
Log the outcome using a class from t (active), f (inactive)

compound	group
CCOC(=O)C1OC(C2(C)OC3(OC4(C=CC3O)OC(C(C)C(=O)C(C)C(O)C(C)CC(C)c3c(Cl)cc(C)c(O)c3C(=O)O)C(C)CC4C)C(C)C2OC)CC1O (centres undefined)	t

Q: Could you check what this test reported for NC1=NS(=O)(=O)Nc2nc(-c3ccccc3)c(-c3ccccc3)nc21 ?
A: f

Q: Could you check what this test reported for CCCCc1ccc(Nc2cc(=O)n(C)c(=O)[nH]2)cc1 ?
A: f

====

Tested on: CCRF-CEM
test: NCI tumour cell line growth inhibition, 48 h
Activity calls are given as the source filed them. Cut-off read from the data, not from the text of the source: active = GI50 up to about 1.1 µM and inactive = higher.
quantity-kind: GI50

> print(dat)
                                   compound  measured.target  quantity.kind               result
1            Cc1ccc2nc(CN3CCCCC3)cc(=O)n2c1         CCRF-CEM           GI50  > 100 µM (inactive)
2        N[C@H]1c2c(Br)sc(Br)c2C(=O)[C@H]1O         CCRF-CEM           GI50   2.72 µM (inactive)
3                   CCCCn1c(O)nc2c(N)ncnc21         CCRF-CEM           GI50  > 100 µM (inactive)
4  COC(=O)/C=C(\C)CC(O)/C=C(\C)CCC=C(C)C (centres undefined)         CCRF-CEM           GI50   30.8 µM (inactive)

Consider the following items and state reported GI50 for each.
1. COc1ccc(Nc2cc(O)nc(O)n2)cc1
2. O=c1[nH]cc(/N=C/c2cc(Cl)ccc2O)c(=O)[nH]1
3. c1ccc2cc(NCNc3ccc4ccccc4c3)ccc2c1
4. CCCCN(C)C(=O)C1=C(C)NC(C)=C(C(=O)N(C)CCCC)C1
5. N#Cc1ccc(C2NN=CC23C(=O)c2ccccc2OC3c2ccccc2)cc1 (centres undefined)

A:
1: > 100 µM (inactive); 2: 2.26 µM (inactive); 3: 11.8 µM (inactive); 4: 66.2 µM (inactive); 5: 32.6 µM (inactive)

====

System: IGROV-1
test: NCI tumour cell line growth inhibition, 48 h
Calls of active or inactive are those of the source. Cut-off read from the data, not from the text of the source: active = GI50 up to about 1.1 µM and inactive = higher.
Exercise: state measured GI50 for each of the compounds provided.

Here's what some known entries look like.
> print(dat)
                                   compound               result
1  CN(C)CCNc1nc2c(no[n+]2[O-])c2ccccc12.[O-][Cl+3]([O-])([O-])O     18 µM (inactive)
2  O=c1[nH]c(=O)n(C2OC(CO)C(O)C2O)cc1OCCCc1ccccc1 (configuration not stated)  > 100 µM (inactive)
3  CO/N=C1/c2sccc2[C@H](NC(=O)C(F)(F)F)[C@@H]1O  > 100 µM (inactive)

Consider the following items and state reported GI50 for each.
1. C/C(CC(=O)Nc1cccc([N+](=O)[O-])c1)=N\NC(=O)CC#N
2. N#Cc1c(C#N)c(-c2ccccc2)n(/N=C\c2ccccc2)c1N
3. Nc1nc2c(ncn2C2CCC(CO)O2)c(=O)n1C(=O)c1ccccc1 (configuration not stated)
4. COC(=O)Cc1c(-c2c(CC(=O)OC)c3ccccc3n2C2OC(COC(C)=O)C(OC(C)=O)C(OC(C)=O)C2OC(C)=O)[nH]c2ccccc12 (configuration not stated)

A:
1. > 100 µM (inactive)
2. 15.6 µM (inactive)
3. > 100 µM (inactive)
4. 74.6 µM (inactive)

====

Tested on: HL-60
test: NCI tumour cell line growth inhibition, 48 h
Activity calls are given as the source filed them. No stated cut-off is given here; in the data, active = GI50 up to about 1.1 µM and inactive = higher.
Log the outcome using a class from active, inactive

Example cases with answers are listed next.
> print(dat)
                                   compound     group
1  CC(C(=O)c1ccc(O)cc1)C1(O)C(=O)Nc2c(Cl)cc(Cl)cc21 (stereo not drawn)  inactive
2  CN(C)[C@@H]1C(O)=C(C(=O)NCN2CCN(C(=N)NC(=N)N)CC2)C(=O)[C@@]2(O)C(O)=C3C(=O)c4c(O)cccc4[C@@](C)(O)[C@H]3C[C@@H]12    active
3   Cc1ccc(S(=O)(=O)c2scc(-c3ccccc3)c2C)cc1  inactive
4     N=c1nc(N)nc(N)n1-c1ccc(S(N)(=O)=O)cc1  inactive

Q: Could you check what this test reported for Nc1ccn(C2CCC(CO)O2)c(=O)n1 (stereo not drawn) ?
A: inactive

Q: Could you check what this test reported for CC(=O)Nc1ccc2[nH]c(C(=O)N3CC(CCl)c4c3cc(N)c3ccccc43)cc2c1 (stereo not drawn) ?
A: active

Q: Could you check what this test reported for CCCCCCCCCCCCOc1ccc(/C=C/C2=[N+](CCCl)CCO2)cc1 ?
A: inactive

Q: Could you check what this test reported for CO/N=C1/c2sccc2[C@H](NC(=O)C(F)(F)F)[C@@H]1O ?
A: inactive

Q: Could you check what this test reported for CC(=O)CC(=O)CCC(=O)O ?
A: inactive

Q: Could you check what this test reported for NC1=NS(=O)(=O)Nc2nc(-c3ccccc3)c(-c3ccccc3)nc21 ?
A: inactive

Q: Could you check what this test reported for CCc1n[nH]c(=O)n1CCO ?
A: inactive

Q: Could you check what this test reported for Nc1nc(-c2ccccc2)nc2oc(-c3cccs3)nc12 ?
A: inactive

Q: Could you check what this test reported for c1ccc2c(c1)[nH]c1c2ncc2[nH]c3ccccc3c21 ?
A: inactive

Q: Could you check what this test reported for Clc1ccc(-c2nnc(-c3cccc4ccccc34)o2)cc1Cl ?
A: active

Q: Could you check what this test reported for CC1NS(=O)(=O)N(C)C1=O (stereo not drawn) ?
A: inactive

Q: Could you check what this test reported for CN(C)C(=N)NC(=S)N(C)C ?
A: inactive

Q: Could you check what this test reported for N#Cc1c2nc3ccccc3nc2n2ccccc12 ?
A: inactive

Q: Could you check what this test reported for COC1(OC)CC2C(=O)N(Cc3ccccc3)C1C(S(=O)(=O)c1ccccc1)C2C(C)S(=O)(=O)c1ccccc1 (stereo not drawn) ?
A: inactive

====

Test system: OVCAR-5
test: NCI tumour cell line growth inhibition, 48 h
Calls of active or inactive are those of the source. No stated cut-off is given here; in the data, active = GI50 up to about 1.1 µM and inactive = higher.
Exercise: state measured GI50 for each of the compounds provided.

Here's what some known entries look like.
compound	result
O=C1c2ccccc2NC(=S)[C@@H]2CCCN12	> 100 µM (inactive)
COc1ccc2nc3c(C(=O)NCCN(C)C)cccc3nc2c1	11.2 µM (inactive)
CCO/C([O-])=C(\C(=O)c1ccccc1)[n+]1c(C)sc2ccccc21	> 100 µM (inactive)
CC(=O)CC(=O)ON(C)C(=O)Cc1ccccc1	> 100 µM (inactive)
COC(=O)C(/C(=N\O)C(=O)Nc1cccc(Cl)c1C)c1cnc2ccccc2n1 (centres undefined)	> 100 µM (inactive)

Consider the following items and state reported GI50 for each.
1. COc1ccc(C(=O)Cc2ccc(Br)cc2)cc1OC
2. COc1cccc(OC)c1C1ON=C(c2ccccc2)N1C12CC3CC(CC(C3)C1)C2 (centres undefined)

A:
> 100 µM (inactive)
46.2 µM (inactive)

Consider the following items and state reported GI50 for each.
1. COc1cc(C)c(/C=C/C(=O)N2C(=O)OC[C@@H]2c2ccccc2)c(C)c1
2. CC(=O)Nc1ccc(S(=O)(=O)Nc2nc(-c3ccc(Cl)cc3)cc(N3N=C(c4ccc(Br)cc4)CC3c3ccccc3)n2)cc1 (centres undefined)
3. COC(=O)C1(c2ccc(OC)cc2)NC(c2ccccc2)C2C(=O)N(c3ccc(OC)cc3)C(=O)C21 (centres undefined)
4. C#CCNC(=O)NC(CCCCNC(=O)OCc1ccccc1)C(=O)OCc1ccccc1 (centres undefined)
5. Nc1ccn(C2CCC(CO)O2)c(=O)n1 (centres undefined)
6. CCC1(O)CC(OC2CC(N(C)C)C(OC3CC(O)C(OC4CCC(=O)C(C)O4)C(C)O3)C(C)O2)c2c(cc3c(c2O)C(=O)c2c(O)ccc(O)c2C3=O)C1C(=O)OC (centres undefined)

A:
["> 100 µM (inactive)", "14.3 µM (inactive)", "> 100 µM (inactive)", "> 100 µM (inactive)", "> 100 µM (inactive)", "0.0123 µM (active)"]

Consider the following items and state reported GI50 for each.
1. CN(C)c1ccc(/C=C2\N=C(N/N=C/c3ccc(N(C)C)cc3)NC2=O)cc1
2. Cc1cc(C)nc(NS(=O)(=O)c2ccc(NC(=O)COC(=O)c3cccc4c(=O)c5ccccc5[nH]c34)cc2)n1
3. c1cc(CCN2CCCCC2)ccn1
4. S=c1sc2c(s1)SCCCCSCCCCSc1sc(=S)sc1SCCCCSCCCCS2
5. N#CC1(C2SCC[S+]2[O-])C2=C(C(=O)c3ccccc3C2=O)N2CCCC21 (centres undefined)
6. Cc1ccc2c(=O)c3ccccc3sc2c1
7. c1ccc2c(c1)[nH]c1c2ncc2[nH]c3ccccc3c21
8. O=C1N[C@@H]2C(=C[C@H](O)[C@@H](O)[C@H]2O)c2cc3c(c(O)c21)OCO3 [NARCICLASINE]

A:
1: > 100 µM (inactive); 2: 20.7 µM (inactive); 3: > 100 µM (inactive); 4: > 100 µM (inactive); 5: 3.78 µM (inactive); 6: > 100 µM (inactive); 7: 10.9 µM (inactive); 8: 0.0632 µM (active)

Consider the following items and state reported GI50 for each.
1. NS(=O)(=O)C1CCCCC1C(=O)NNC(=O)C(=O)Nc1nnc(S)[nH]1 (centres undefined)
2. C=C(C)[C@@H]1CC[C@@H](C)[C@](O)([C@@H]2C[C@@H]([C@H](COC(=O)c3ccccc3)OC(=O)c3ccccc3)OC2=O)C1
3. CC1=C(/C=C/C(C)=C/C=C/C(C)=C/C(=O)O)C(C)(C)CCC1 [TRETINOIN]

A:
> 100 µM (inactive)
> 100 µM (inactive)
> 68.5 µM (inactive)
